The reported measurements were obtained from patent US20230263822A1.

The substances listed here are annotated with their Albumin.
# experiment: Tolerability in CD1 mice: liver function, ALT, AST, bilirubin, albumin (Example 33)
# condition: plasma, 50 mg/kg s.c. twice a week, 6 weeks
Please respond with just the number, no unit label.

Check out these entries, answers already filled in.
ISIS 416864: MOE gapmer, nucleobases 1275 to 1318 of SEQ ID NO: 1 (Table 8) (antisense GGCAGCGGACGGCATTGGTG; MOE gapmer, wing and gap sizes not given here): 3.5
ISIS 416838: MOE gapmer, nucleobases 1018 to 1042 of SEQ ID NO: 1 (Table 6) (antisense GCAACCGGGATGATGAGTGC; MOE gapmer, wing and gap sizes not given here): 3.6
ISIS 416850: MOE gapmer, nucleobases 1275 to 1318 of SEQ ID NO: 1 (Table 8) (antisense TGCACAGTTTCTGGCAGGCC; MOE gapmer, wing and gap sizes not given here): 3.1
ISIS 416858: MOE gapmer, nucleobases 1275 to 1318 of SEQ ID NO: 1 (Table 8) (antisense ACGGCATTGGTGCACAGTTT; MOE gapmer, wing and gap sizes not given here): 2.8

So, ISIS 417002: MOE gapmer, nucleobases 1275 to 1318 of SEQ ID NO: 1 (Table 8) (antisense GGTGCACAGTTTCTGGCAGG; MOE gapmer, wing and gap sizes not given here) ? Its Albumin was 3.4
